Assay System: Replicase polyprotein 1ab (Severe acute respiratory syndrome coronavirus 2, UniProt P0DTD1)
Assay Name: Functional biochemical assay to identify treatments for viral infectious disease that targets SARS-COV-2 nsp3 macrodomain, whereby the mechanism of action inhibits ADP-Ribose hydrolase activity. Utilizing an enzymatic assay to monitor the conversion of alpha-NAD+ to ADP-Ribose and nicotinamide. ADP-ribose was quantified by LC-MS/MS after precipitation of proteins.
pIC50: −log10 of the molar value.
# pIC50 values compiled below
Assay Endpoint: pIC50

- CC(C)[C@@H](Nc1ncnc2[nH]ccc12)c1ccc2c(c1)NC(=O)CO2: 5.53
- CC(C)(C)[C@@H](Nc1ncnc2[nH]c(-c3cnn(CC(N)=O)c3)cc12)c1ccc2c(n1)OCCO2: 6.69
- CNC(=O)c1c[nH]c2ncnc(N[C@H](c3ccc4c(c3)S(=O)(=O)CCC4)C(C)C)c12: 6.61

---

# IC50 values compiled below
Assay System: Replicase polyprotein 1ab (Severe acute respiratory syndrome coronavirus 2, UniProt P0DTD1)
Assay Name: Functional biochemical assay to identify treatments for viral infectious disease that targets SARS-COV-2 nsp3 macrodomain, whereby the mechanism of action displaces an ADP-Ribose modified peptide from the binding site. Utilizing a time-resolved fluorescence method to measure binding by reading the emitted fluorescence intensity in two wavelengths.
Assay Endpoint: IC50 (µM)

- CC(C)[C@@H](Nc1ncnc2[nH]c(-c3cc(O)nc4ccccc34)cc12)c1ccc2c(c1)S(=O)(=O)CCC2: 1.67
- CCNC(=O)c1cc2c(N[C@H](c3ccc4c(n3)S(=O)(=O)CCC4)C(C)C)ncnc2[nH]1: 0.119
- Cc1n[nH]c(C)c1-c1cc2c(N[C@@H](c3ccc4c(c3)OCCO4)C(C)C)ncnc2[nH]1: 31.7
- Cc1nnc(CNC(=O)c2cc3c(N[C@@H](c4ccc5c(c4)OCCO5)C(C)C)ncnc3[nH]2)o1: 1.12

---

Assay System: Replicase polyprotein 1ab (Severe acute respiratory syndrome coronavirus 2)
Assay Name: Functional biochemical assay to identify treatments for viral infectious disease that targets SARS-COV-2 nsp3 macrodomain, whereby the mechanism of action displaces an ADP-Ribose modified peptide from the binding site. Utilizing a time-resolved fluorescence method to measure binding by reading the emitted fluorescence intensity in two wavelengths.
Assay Endpoint: IC50

• O=C(O)C[C@@H](NC(=O)c1c[nH]c2ncncc12)c1ccc(NCC2=NO[C@@H]3COC[C@H]23)cc1 = > 99.5 µM
• CC(C)[C@@H](Nc1cc(-n2ccnn2)ncn1)c1ccc2c(c1)S(=O)(=O)CCC2 = > 99.5 µM
• CC(C)[C@@H](Oc1ncnc2[nH]ccc12)c1ccc2c(c1)S(=O)(=O)CCC2 = 6.05 µM
• Cc1[nH]c2ncnc(NC(=O)c3ccnnc3)c2c1C = > 99.5 µM
• CC(C)[C@H](Nc1ncncc1N1CCNCC1)c1ccc2c(c1)S(=O)(=O)CCC2 = > 99.5 µM

---

# IC50 values compiled below
Assay System: Replicase polyprotein 1ab (Severe acute respiratory syndrome coronavirus 2)
Assay Name: Functional biochemical assay to identify treatments for viral infectious disease that targets SARS-COV-2 nsp3 macrodomain, whereby the mechanism of action displaces an ADP-Ribose modified peptide from the binding site. Utilizing a time-resolved fluorescence method to measure binding by reading the emitted fluorescence intensity in two wavelengths.
Assay Endpoint: IC50

• CC(C)c1nc(N[C@@H](c2ccc3c(c2)OCCO3)C(C)C)c2cc[nH]c2n1 = > 99.5 µM
• CC(C)[C@@H](Nc1ncnc2ncccc12)c1ccc2c(c1)OCCO2 = > 99.5 µM
• Cc1[nH]c2ncnc(NC(=O)[C@@H]3CCCc4ncccc43)c2c1C = > 99.5 µM
• O=C(Nc1cccc2c(C(=O)N[C@@H](c3ccccc3)C(F)F)c[nH]c12)NC1CC1 = > 99.5 µM
• CC(C)(C)n1cc([C@H]2N(c3ncnc4[nH]ccc34)CC23CCOCC3)cn1 = > 99.5 µM
• O=C(NCc1cc2n(n1)CCCC2)c1cc2cncnc2[nH]1 = > 124 µM
• O=C(Nc1ccc(C(=O)NCc2c(C(=O)O)[nH]c3ccccc23)cc1)NC1CC1 = 13.6 µM
• Cc1ncc(C(=O)Nc2ncnc3[nH]c(C)c(C)c23)cn1 = > 99.5 µM
• Cc1ccc(-c2n[nH]cc2CNc2cnc3[nH]ncc3c2)o1 = > 124 µM
• CC(C)[C@H](Nc1ncnc(N2CCCC2)n1)c1ccc2c(c1)S(=O)(=O)CCC2 = > 99.5 µM
• CNC(=N)C[C@@H](NC(=O)c1ncnc2[nH]ccc12)c1ccc(Br)cc1 = > 99.5 µM
• COc1ccc(S(=O)(=O)Nc2cnc3[nH]ccc3c2)cc1C(N)=O = > 99.5 µM
• c1nc(-c2ccc3c(c2)OCO3)c2cc[nH]c2n1 = > 99.5 µM
• CC(C)[C@@H](NCc1ccc(-n2ccnc2)cc1)c1ccc2c(c1)OCCO2 = > 99.5 µM
• CC(C)[C@H](Nc1ncncc1-c1nc[nH]n1)c1ccc2c(c1)S(=O)(=O)CCC2 = > 99.5 µM
• O=C1NCCc2ccc(CNc3ncnc4[nH]ccc34)cc21 = > 99.5 µM
• O=C(O)c1ccsc1C(=O)N1CCC(c2ccn3ncc(C(=O)N4CCCCC4)c3c2)CC1 = 58.9 µM
• CC(C)[C@@H](Nc1ccnc2[nH]ncc12)c1ccc2c(c1)S(=O)(=O)CCC2 = > 99.5 µM
• COCCNC(=O)c1c[nH]c2ncnc(N[C@@H](c3ccc4c(c3)S(=O)(=O)CCC4)C(C)C)c12 = 0.326 µM
• O=C(O)c1sccc1C(=O)N1CCC(c2ccn3ncc(C(=O)N4CCCCC4)c3c2)CC1 = 38 µM
• CCNC(=O)c1cc2c(N[C@H](c3ccc4c(c3)S(=O)(=O)CCC4)C(C)C)ncnc2[nH]1 = 1.28 µM

---

Assay System: Replicase polyprotein 1ab (Severe acute respiratory syndrome coronavirus 2)
Assay Name: Functional biochemical assay to identify treatments for viral infectious disease that targets SARS-COV-2 nsp3 macrodomain, whereby the mechanism of action displaces an ADP-Ribose modified peptide from the binding site. Utilizing a time-resolved fluorescence method to measure binding by reading the emitted fluorescence intensity in two wavelengths.
# IC50 values compiled below
Assay Endpoint: IC50

- CC(C)[C@H](Nc1cccc2nc[nH]c(=O)c12)c1ccc2c(c1)S(=O)(=O)CCC2: > 99.5 µM
- O=C(Nc1cnc2[nH]ncc2c1)C1CCN(c2ccc3nncn3n2)CC1: > 124 µM
- NC(=O)C[C@@H](NC(=O)c1ncnc2[nH]ccc12)C1CCCCC1: > 99.5 µM
- C[C@@H](O)[C@@H](NC(=O)c1csc2c(NC(=O)NC3CC3)ncnc12)c1ccccc1F: > 99.5 µM
- CC(C)[C@@H](NC(=O)c1ccccn1)c1ccc2c(c1)OCCO2: > 99.5 µM
- COc1ccc([C@H](CC(=O)O)NC(=O)c2ncnc3[nH]ccc23)cc1: 1.44 µM
- CC(C)[C@@H](Nc1ncncc1Cl)c1ccc2c(c1)S(=O)(=O)CCC2: > 99.5 µM
- O=C(CCN(Cc1cccc(Cl)c1)C(=O)c1ccc(F)cn1)N1CCNCC1: > 99.5 µM
- CC(C)[C@@H](Nc1ncnc2[nH]ccc12)c1cccc(S(C)(=O)=O)c1: 96.4 µM
- O=C(O)c1ccc(C(=O)N2CCC(c3ccn4ncc(C(=O)N5CCCCC5)c4c3)CC2)o1: 68.1 µM
- O=C(c1ccccc1)N1CCC(c2ccn3ncc(C(=O)N4CCc5nc[nH]c5C4)c3c2)CC1: > 99.5 µM
- COc1nc(N[C@@H](c2ccc3c(c2)OCCO3)C(C)C)c2cc[nH]c2n1: > 99.5 µM
- CC(C)[C@@H](NC(=O)c1ccnc2ccccc12)c1ccc2c(c1)OCCO2: > 99.5 µM
- O=C(Nc1ncnc2c(C(=O)Nc3ccccc3C(=O)N3CCCC3)csc12)NC1CC1: > 99.5 µM
- c1nc(N[C@@H](c2ccc3c(c2)OCCO3)[C@@H]2CCN2)c2cc[nH]c2n1: > 99.5 µM
- COc1ccc([C@@H](CC(=O)O)NC(=O)c2c[nH]c3c(NC(=O)NC4CC4)cccc23)cc1: > 99.5 µM
- CC(C)[C@H](Nc1ncnc2cn[nH]c12)c1ccc2c(c1)S(=O)(=O)CCC2: > 99.5 µM
- N#CC[C@@H](NC(=O)c1ncnc2[nH]ccc12)c1ccc(Br)cc1: > 99.5 µM
- CC(C)[C@@H](CCN(C)C(=O)c1cc2nccnc2cc1F)Nc1ncnc2[nH]ccc12: > 99.5 µM
- CC(C)[C@@H](Nc1ncnc2[nH]c(-c3cc(-c4ccccc4)n[nH]3)cc12)c1ccc2c(c1)OCCO2: > 99.5 µM

---

Assay System: Replicase polyprotein 1ab (Severe acute respiratory syndrome coronavirus 2, UniProt P0DTD1)
Assay Name: Functional biochemical assay to identify treatments for viral infectious disease that targets SARS-COV-2 nsp3 macrodomain, whereby the mechanism of action displaces an ADP-Ribose modified peptide from the binding site. Utilizing a time-resolved fluorescence method to measure binding by reading the emitted fluorescence intensity in two wavelengths.
pIC50: −log10 of the molar value.
Assay Endpoint: pIC50

- Cc1[nH]c2ncnc(NC(=O)c3ccc(S(C)(=O)=O)nc3)c2c1C: < 4.00
- CC(C)[C@@H](Nc1ncnc2[nH]c(Br)cc12)c1ccc2c(c1)S(=O)(=O)CCC2: 6.47
- CCNC(=O)c1cc2c(N[C@@H](CCc3cccc(NS(C)(=O)=O)c3)C(C)C)ncnc2[nH]1: < 4.00
- CCNC(=O)c1cc2c(N[C@H](c3ccccc3N(C)S(C)(=O)=O)C(C)C)ncnc2[nH]1: < 4.00
- CC(C)[C@@H](NC(=O)c1ccnc(-n2ccnc2)c1)c1ccc2c(c1)OCCO2: < 4.00
- CC(C)[C@@H]1C[C@@H](Nc2ncnc3[nH]ccc23)CCO1: < 4.00
- O=C(O)C[C@@H](NC(=O)Cc1c[nH]c2ncccc12)c1ccc(Br)cc1: < 4.00
- CC(C)[C@@H](Nc1cc(-n2nccn2)ncn1)c1ccc2c(c1)S(=O)(=O)CCC2: < 4.00
- O=C(Nc1cccc2c(C(=O)N[C@@H](C(=O)O)c3ccc4c(c3)OCCO4)c[nH]c12)NC1CC1: < 4.00
- O=S(=O)(Cc1ccccc1F)Nc1cnc2[nH]ccc2c1: < 4.00
- Cc1ccc2c(NC(=O)c3ccc(NC(=O)NC4CC4)cc3)c(C(=O)O)sc2n1: < 4.00
- CC(C)[C@H](Nc1cc(-n2ccnn2)ncn1)c1ccc2c(c1)S(=O)(=O)CCC2: < 4.00
- O=C(Nc1ccc(C(=O)Nc2c(C(=O)O)oc3cc(Br)ccc23)cc1)NC1CC1: < 4.00
- CC(C)n1nccc1S(=O)(=O)Nc1cnc2[nH]ccc2c1: < 4.00
- CCNC(=O)c1cc2c(NC3(c4ccc5c(c4)S(=O)(=O)CCC5)CC3)ncnc2[nH]1: 4.61
- O=C(O)C[C@@H](NC(=O)c1ccc(NC(=O)NC2CC2)cc1)C1CCOCC1: < 4.00
- c1nc(N[C@@H](c2ccc3c(c2)OCCO3)C2CNC2)c2cc[nH]c2n1: < 4.00
- Cc1nnc(Nc2ccc(C(=O)N[C@H]3c4cccc(O)c4C[C@@H]3C(=O)O)cc2)o1: < 4.00
- CCNC(=O)c1cc2c(NC3(c4ccc5c(c4)S(=O)(=O)CCC5)CCC3)ncnc2[nH]1: 5.52
- O=C(c1cccnc1S)N1CCC(c2ccn3ncc(C(=O)N4CCCCC4)c3c2)CC1: 4.21
